- System: Raf-1^gof intestinal tumors
- PROCEDURE_DETAILS: Luciferase screen of FDA-approved (NCI) drugs in 96-well plates, flies with Raf-1^gof intestinal tumors
- Format: in vivo, Drosophila
- EXPERIMENTAL_CONTEXT: six-day protocol: single dose for three days, then another dose for three more days
Where a name gives a salt, the structure may show the parent alone.
Decision: Day 6 Fold >= 0.8 fold yields True, all other cases yield False.

{"columns": ["COMPOUND", "GROUP_LABEL"],
 "data": [
  ["C/C(=C\\c1csc(C)n1)[C@@H]1C[C@@H]2O[C@]2(C)CCC[C@H](C)[C@H](O)[C@@H](C)C(=O)C(C)(C)[C@@H](O)CC(=O)N1 [Ixabepilone]", "False"],
  ["COc1cc([C@@H]2c3cc4c(cc3[C@@H](O[C@@H]3O[C@@H]5CO[C@@H](c6cccs6)O[C@H]5[C@H](O)[C@H]3O)[C@H]3COC(=O)[C@H]23)OCO4)cc(OC)c1O [Teniposide]", "False"],
  ["N.N.O=C([O-])C1(C(=O)[O-])CCC1.[Pt+2] [Carboplatin]", "True"],
  ["Cc1nc(Nc2ncc(C(=O)Nc3c(C)cccc3Cl)s2)cc(N2CCN(CCO)CC2)n1 [Dasatinib]", "False"],
  ["CN(C)/N=N/c1[nH]cnc1C(N)=O [Dacarbazine]", "True"],
  ["COc1nc(N)nc2c1ncn2[C@@H]1O[C@H](CO)[C@@H](O)[C@@H]1O [Nelarabine]", "True"],
  ["Nc1ccn([C@@H]2O[C@H](CO)[C@@H](O)C2(F)F)c(=O)n1 [Gemcitabine HCl]", "False"],
  ["CC(=O)O[C@H]1C(=O)[C@@]2(C)[C@H]([C@H](OC(=O)c3ccccc3)[C@]3(O)C[C@H](OC(=O)[C@H](O)[C@@H](NC(=O)c4ccccc4)c4ccccc4)C(C)=C1C3(C)C)[C@]1(OC(C)=O)CO[C@@H]1C[C@@H]2O [Paclitaxel]", "True"],
  ["CC[C@]1(O)C[C@@H]2CN(CCc3c([nH]c4ccccc34)[C@@](C(=O)OC)(c3cc4c(cc3OC)N(C)[C@H]3[C@@](O)(C(=O)OC)[C@H](OC(C)=O)[C@]5(CC)C=CCN6CC[C@]43[C@@H]65)C2)C1 [Vinblastine sulfate]", "False"],
  ["Nc1ncn([C@@H]2O[C@H](CO)[C@@H](O)[C@H]2O)c(=O)n1 [Azacitidine]", "True"],
  ["CS(=O)(=O)OCCCCOS(C)(=O)=O [Busulfan]", "False"],
  ["Cn1nnc2c(C(N)=O)ncn2c1=O [Temozolomide]", "True"],
  ["COc1cccc2c1C(=O)c1c(O)c3c(c(O)c1C2=O)C[C@@](O)(C(C)=O)C[C@@H]3O[C@H]1C[C@H](N)[C@H](O)[C@H](C)O1 [Daunorubicin HCl]", "False"],
  ["O=C(CCCCCCC(=O)Nc1ccccc1)NO [Vorinostat]", "True"],
  ["COc1cccc2c1C(=O)c1c(O)c3c(c(O)c1C2=O)C[C@@](O)(C(=O)CO)C[C@@H]3O[C@H]1C[C@H](N)[C@H](O)[C@H](C)O1 [Doxorubicin HCl]", "True"],
  ["CC(=O)O[C@@]12CO[C@@H]1C[C@H](O)[C@@]1(C)C(=O)[C@H](O)C3=C(C)[C@@H](OC(=O)[C@H](O)[C@@H](NC(=O)OC(C)(C)C)c4ccccc4)C[C@@](O)([C@@H](OC(=O)c4ccccc4)[C@H]21)C3(C)C [Docetaxel]", "False"],
  ["O=C(c1ccc(OCCN2CCCCC2)cc1)c1c(-c2ccc(O)cc2)sc2cc(O)ccc12 [Raloxifene HCl]", "True"]
]}
